target: mOR103-15 (Mus musculus, UniProt Q9QWU6); construct: full length; C-terminal GSSG linker plus rho1D4 tag (TETSQVAPA); E. coli cell-free expression in Brij-35, purified in FC-14; assay: microscale thermophoresis, native tryptophan fluorescence, Hill fit n = […]; conditions: read-out: Measured EC50
Sequence (Q9QWU6 1-327): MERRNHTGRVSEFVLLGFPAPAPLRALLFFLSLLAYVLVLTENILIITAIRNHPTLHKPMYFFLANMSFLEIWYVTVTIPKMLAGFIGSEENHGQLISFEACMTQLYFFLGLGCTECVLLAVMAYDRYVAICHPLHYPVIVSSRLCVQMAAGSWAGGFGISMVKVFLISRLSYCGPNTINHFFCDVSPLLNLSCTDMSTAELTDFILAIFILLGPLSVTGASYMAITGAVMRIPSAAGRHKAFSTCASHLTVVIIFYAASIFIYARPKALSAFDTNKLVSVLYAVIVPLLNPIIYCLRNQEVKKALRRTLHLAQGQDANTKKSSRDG
property: EC50 (nM)
Numbers only, in nM.

Q: Give reported EC50 value for `CCCCCCC=O`
Ans: 2000

====

target: mOR174-4 (Mus musculus); construct: full length; C-terminal GSSG linker plus rho1D4 tag (TETSQVAPA); E. coli cell-free expression in Brij-35, purified in FC-14; assay: microscale thermophoresis, native tryptophan fluorescence, Hill fit n = […]; details: read-out: Measured EC50
Sequence (Q920P1 1-318): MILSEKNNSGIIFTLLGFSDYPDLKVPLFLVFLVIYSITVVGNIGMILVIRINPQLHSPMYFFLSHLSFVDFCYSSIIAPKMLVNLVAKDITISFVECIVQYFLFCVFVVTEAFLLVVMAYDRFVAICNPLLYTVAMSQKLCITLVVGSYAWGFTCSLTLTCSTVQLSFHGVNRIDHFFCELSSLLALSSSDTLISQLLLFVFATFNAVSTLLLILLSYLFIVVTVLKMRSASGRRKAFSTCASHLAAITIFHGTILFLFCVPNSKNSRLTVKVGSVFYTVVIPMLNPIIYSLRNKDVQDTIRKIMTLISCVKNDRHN
property: EC50

Q: Query EC50 for `CCOc1cc(C=O)ccc1O`
Ans: 7 µM
